experiment: RP, Waters CORTECS T3, 100 × 2.1 mm, 2.7 µm, 0.3 mL/min, estimated dead time 0.73 min; A: water + 0.1% formic acid, pH 3; B: methanol + 0.1% formic acid, pH 3; gradient (min/%B) 0/0 1/0 6/5 30/100 35/100 35.1/0 40/0; details: stereoisomer not certain
Listing: LC retention time of selected molecules

Molecule	LC retention time, min
CC(=O)NCC(=O)O [N-ACETYLGLYCINE]	0.95
CC(=O)N[C@H](Cc1c[nH]c2ccccc12)C(=O)O [N-ACETYL-D-TRYPTOPHAN]	14.2
O=c1[nH]cc(CO)c(=O)[nH]1 [5-HYDROXYMETHYLURACIL]	0.9
Nc1ncnc2c1ncn2C1OC(COP(=O)(O)OP(=O)(O)OC2OC(CO)C(O)C(O)C2O)C(O)C1O (stereo unspecified) [ADENOSINE 5'-DIPHOSPHOGLUCOSE]	0.92
O=C([O-])CCc1ccccc1O [3-(2-HYDROXYPHENYL)PROPANOATE]	14.2
O=C(O)c1cc(=O)c2cccc(O)c2[nH]1 [XANTHURENIC ACID]	10.5
Nc1nc2nccnc2c(=O)[nH]1 [PTERIN]	3.11
O=C(O)CCCCC1SCC2NC(=O)NC21 (stereo unspecified) [BIOTIN]	12.3
CC(=O)N[C@@H](Cc1ccccc1)C(=O)O [N-ACETYL-L-PHENYLALANINE]	13.6
O=c1ccn(C2OC(COP(=O)(O)O)C(O)C2O)c(=O)[nH]1 (stereo unspecified) [URIDINE-5-MONOPHOSPHATE]	0.92
CCCCCCSCC(NC(=O)CCC(N)C(=O)O)C(=O)NCC(=O)O (stereo unspecified) [S-HEXYL-GLUTATHIONE]	18.1
Cc1cc2nc3c(=O)[nH]c(=O)nc-3n(CC(O)C(O)C(O)CO)c2cc1C (stereo unspecified) [RIBOFLAVIN]	13.5
O=c1ccn(C2CC(O)C(COP(=O)(O)O)O2)c(=O)[nH]1 (stereo unspecified) [2'-DEOXYURIDINE 5'-MONOPHOSPHATE]	0.92
Cc1cc2nc3c(=O)[nH]c(=O)nc-3n(CC(O)C(O)C(O)COP(=O)(O)OP(=O)(O)OCC3OC(n4cnc5c(N)ncnc54)C(O)C3O)c2cc1C (stereo unspecified) [FLAVIN ADENINE DINUCLEOTIDE]	12.1
CC(C)=CCNc1ncnc2nc[nH]c12 [N6-(DELTA2-ISOPENTENYL)-ADENINE]	13.6
Nc1ncnc2c1ncn2C1CC(O)C(COP(=O)(O)O)O1 (stereo unspecified) [DAMP]	0.92
